# tested-system: Sphingosine 1-phosphate receptor 5 (Homo sapiens)
# test-method-notes: antagonism at human S1PR5 – cell-based, FRET, dose response, selectivity assay for S1PR3 antagonist project, late-stage follow-up (AID 743443)
# recorded-conditions: S1P5 FRET cell-based antagonist assay
The source made the active and inactive calls. How the calls were made is not given here.
property-name: IC50

| compound | tested-system | IC50 |
| --- | --- | --- |
| Cc1ccc(C(=O)NC(c2ccccc2)c2nc(-c3ccccc3)no2)cc1 (stereo not drawn) | Sphingosine 1-phosphate receptor 5 (Homo sapiens) | > 28.2 µM (inactive) |

Q. Let me know recorded IC50 for O=C(NC(c1ccc(Br)cc1)c1nc(-c2ccccc2)no1)c1ccc(Cl)c(Cl)c1 (stereo not drawn) , thanks.
A. > 28.2 µM (inactive)
